This listing pairs binders with measured % inhibition of biotinylated nAbs.
Target: T1, EBV gp350 expressed on the surface of stably transfected CHO cells (Epstein-Barr virus, UniProt P03200 1-907)
T1 construct: also called native gp350; gp350 expressing CHO cells
T1 sequence: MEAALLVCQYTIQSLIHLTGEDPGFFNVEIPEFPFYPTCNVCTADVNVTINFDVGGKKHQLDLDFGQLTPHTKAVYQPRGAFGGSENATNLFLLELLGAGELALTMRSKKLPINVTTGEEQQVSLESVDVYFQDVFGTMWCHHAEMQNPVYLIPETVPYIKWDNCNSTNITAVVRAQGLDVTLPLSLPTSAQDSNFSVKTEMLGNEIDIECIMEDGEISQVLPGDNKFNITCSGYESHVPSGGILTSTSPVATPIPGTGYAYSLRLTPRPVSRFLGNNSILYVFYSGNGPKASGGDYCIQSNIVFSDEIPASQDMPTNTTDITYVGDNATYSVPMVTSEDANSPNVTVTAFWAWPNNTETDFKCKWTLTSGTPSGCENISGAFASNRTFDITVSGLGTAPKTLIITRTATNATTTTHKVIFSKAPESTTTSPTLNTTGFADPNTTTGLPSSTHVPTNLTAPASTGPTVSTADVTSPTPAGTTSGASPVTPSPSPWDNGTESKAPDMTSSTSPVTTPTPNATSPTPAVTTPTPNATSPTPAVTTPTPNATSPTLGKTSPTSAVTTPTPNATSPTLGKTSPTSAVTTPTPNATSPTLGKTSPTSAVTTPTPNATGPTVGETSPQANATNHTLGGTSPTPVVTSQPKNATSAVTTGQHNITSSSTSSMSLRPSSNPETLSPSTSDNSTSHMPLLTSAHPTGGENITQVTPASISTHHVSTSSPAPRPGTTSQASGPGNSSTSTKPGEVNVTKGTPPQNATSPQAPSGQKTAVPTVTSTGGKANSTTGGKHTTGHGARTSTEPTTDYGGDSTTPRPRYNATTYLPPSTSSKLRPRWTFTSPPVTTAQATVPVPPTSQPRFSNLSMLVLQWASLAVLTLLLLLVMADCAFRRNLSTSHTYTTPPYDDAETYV
Assay: cell competition (flow), unlabeled 67.5 µg/ml; competitor: biotinylated m72A1 1 µg/ml
READOUT: % inhibition of biotinylated nAbs (%)

BINDER: HB17 (antibody, V domains shown) VH: AELVIPGASVKVSCKASGYTFTSYWIHWVKQWPGQGLEWIGEINPNNGHTNYNEKFKSKATLTVDKSSSTAYMQLSSLTSEDSAVYYCARNLFYYSRPDYWGQGTSVTVSS VL: SSLSASLGDRVTISCRASQDIGNYLNWYQQKPDGTIKLLIYYTSRLHSGVPSRFSGSGSGTDYSLTISNLEEEDIATYFCQQGNTLPPTFGGGTKLEIKR
REPORTED_MEASUREMENT: 0
--
BINDER: HB1 (antibody, V domains shown) VH: PGLVAPSQSLSITCTVSGFLLTTYGVHWVRQPPGKGLEWLGVIWAGGSTNYNSALMSRLSINKDISKSQVFLKMNSLQTDDTAMYYCTRDRGYGYLYAMDYWGQGTSVTVSS VL: KFMSTSVGDRVSVTCKASQNVGTNVAWYQQKPGQSPKALIYSTSSRYTGVPDRFAGSGSGTDYTLTISNVQSEDLAEYFCQQYNTYPYTFGGGTRLDIKR
REPORTED_MEASUREMENT: 81
--
BINDER: HB20 (antibody, V domains shown) VH: ELVKPGASVKLSCKASGYTFTSYWIQWVKQRPGQGLEWIGEINPTNGHTNYNEKFKTKATLTVDKSSSTAYMRLSSLTSEDSAVYYCARNLYYYGRPDYWGQGTSVTVSS VL: SSLSASLGDRVTISCRASQDIGNYLNWYQQKPDGTVKLLIYYTSRLHSGVPSRFSGSGSGTDYSLTISNLEQEDIATYFCQQGNALPPTFGGGTKLEIKR
REPORTED_MEASUREMENT: 89
